Molecular target: ΔF508 CFTR (Homo sapiens, UniProt P13569, DEL508-508)
Sequence (P13569 with tags, fused parts or gaps DEL508-508): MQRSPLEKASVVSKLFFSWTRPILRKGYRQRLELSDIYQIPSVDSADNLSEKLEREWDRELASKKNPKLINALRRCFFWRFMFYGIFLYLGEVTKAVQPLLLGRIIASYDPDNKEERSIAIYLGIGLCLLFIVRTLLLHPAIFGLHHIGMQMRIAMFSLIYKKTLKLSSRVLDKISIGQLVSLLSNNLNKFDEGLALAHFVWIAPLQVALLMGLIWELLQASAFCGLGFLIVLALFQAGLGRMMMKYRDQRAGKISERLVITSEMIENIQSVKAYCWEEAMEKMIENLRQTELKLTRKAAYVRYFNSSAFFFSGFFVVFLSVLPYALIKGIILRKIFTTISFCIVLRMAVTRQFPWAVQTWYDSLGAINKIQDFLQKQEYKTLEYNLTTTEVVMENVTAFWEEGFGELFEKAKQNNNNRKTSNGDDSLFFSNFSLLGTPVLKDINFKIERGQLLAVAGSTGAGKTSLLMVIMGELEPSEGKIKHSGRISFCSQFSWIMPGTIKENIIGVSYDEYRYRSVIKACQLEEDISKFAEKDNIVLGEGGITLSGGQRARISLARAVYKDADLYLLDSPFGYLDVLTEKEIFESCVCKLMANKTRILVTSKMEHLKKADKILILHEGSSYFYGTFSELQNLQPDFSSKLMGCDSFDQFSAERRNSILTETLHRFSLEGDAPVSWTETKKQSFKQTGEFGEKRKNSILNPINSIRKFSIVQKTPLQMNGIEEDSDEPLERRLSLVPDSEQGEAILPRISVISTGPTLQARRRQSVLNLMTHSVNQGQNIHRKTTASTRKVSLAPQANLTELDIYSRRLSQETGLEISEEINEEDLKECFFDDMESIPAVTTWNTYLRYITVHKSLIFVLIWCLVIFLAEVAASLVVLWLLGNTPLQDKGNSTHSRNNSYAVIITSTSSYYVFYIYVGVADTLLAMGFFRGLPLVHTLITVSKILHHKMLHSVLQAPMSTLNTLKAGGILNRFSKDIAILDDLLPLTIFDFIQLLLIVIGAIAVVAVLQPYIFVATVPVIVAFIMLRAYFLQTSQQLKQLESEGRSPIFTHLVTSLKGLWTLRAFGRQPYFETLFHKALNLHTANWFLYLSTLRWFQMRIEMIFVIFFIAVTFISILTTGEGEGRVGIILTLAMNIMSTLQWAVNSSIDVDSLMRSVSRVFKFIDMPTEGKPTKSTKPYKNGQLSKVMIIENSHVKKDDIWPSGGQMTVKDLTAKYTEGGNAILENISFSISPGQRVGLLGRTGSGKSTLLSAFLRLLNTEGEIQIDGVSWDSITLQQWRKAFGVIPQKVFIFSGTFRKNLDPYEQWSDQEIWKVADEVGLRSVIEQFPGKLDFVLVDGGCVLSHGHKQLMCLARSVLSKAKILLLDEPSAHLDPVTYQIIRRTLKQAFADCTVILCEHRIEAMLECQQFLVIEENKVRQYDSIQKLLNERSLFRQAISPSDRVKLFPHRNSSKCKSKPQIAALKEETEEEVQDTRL
Assay: Corrector activity, YFP halide (iodide) quenching assay in FRT cells expressing ΔF508 CFTR
Format: cell-based
Design: expressed in transfected cells; host or cells: Fischer rat thyroid (FRT) cells
Details: FRT cells ΔF508 CFTR/YFP, 24 hours with compound at 37° C., forskolin and genistein; read-out: Corrector EC50
pEC50: −log10 of the molar value.
METRIC_NAME: pEC50

molecule="CN(C)/C=N/c1ncnc2c1c(-c1ccc(Cl)cc1)nn2C(C)(C)C [Compound No. 232]" experimental_result="< 4.82"
molecule="CC(C)(C)OC(=O)N1CC(n2nc(Cc3cccc4ccccc34)c3c(N)ncnc32)C1 [Compound No. 297]" experimental_result="< 4.82"
molecule="CCn1nc([S+]([O-])c2cccc(C(F)(F)F)c2)c2c(N)ncnc21 (stereo not shown) [compound 284]" experimental_result="< 4.82"
molecule="CC(C)(C)n1nc(-c2ccc(Cl)cc2)c2c(NS(C)(=O)=O)ncnc21 [Compound No. 274]" experimental_result="5.30 to 5.70"
molecule="CCn1nc(Sc2ccccc2Cl)c2c(N)ncnc21 [compound 227]" experimental_result="< 4.82"

Count: 3. Required value per item: pEC50.
1. Nc1ncnc2c1c(Oc1cccc(Cl)c1)nn2-c1ncccn1 [compound 287]
2. CCn1nc(Sc2ccccn2)c2c(N)ncnc21 [compound 324]
3. CCNC(=O)Nc1ncnc2c1c(Cc1cccc(Cl)c1)nn2C1CN(C(=O)NCC)C1 [compound 424]

Completion:
["< 4.82", "< 4.82", "< 4.82"]
